Cited source: patent US11590116B2

- measured-on: recombinant human ALK5 (TGF-βR1) protein (Homo sapiens, UniProt P36897)
- Construct: purchased Life Technologies PR9075A
- method-description: Biochemical ALK5 (TGF-βR1) assay to measure pKi (LANCE Ultra ULight kinase assay)
- experimental-context: apparent pKi from pIC50 by Cheng-Prusoff, read-out: ALK5 pKi (converted)
Examples of molecules with documented Ki follow.

Check out these entries, answers already filled in.
>  <molecule>
Cc1nc(-c2n[nH]cc2-c2ccc3ncc(-c4cnn(C[C@H]5CCC[C@@H](N)C5)c4)cc3n2)ccc1F (racemic) [Compound 463]

>  <Ki>
< 31.6 pM

$$$$
>  <molecule>
Cc1cccc(-c2n[nH]cc2-c2ccc3ncc(CCC(=O)N4CCN(C(C)C)CC4)cc3n2)n1 [Compound 372]

>  <Ki>
398 to 3160 pM

$$$$
>  <molecule>
Cc1cccc(-c2[nH]cnc2-c2ccc3ncc(NCCN4CCC5(CC4)CNC5)cc3c2)n1 [Compound 404]

>  <Ki>
39.8 to 316 pM

$$$$

// next entry
stdin: Write down Ki measured for item Cc1cccc(-c2[nH]cnc2-c2ccc3ncc(N4CCN(C)C(CC(=O)O[C@@H]5CCNC5)C4)cc3c2)n1 (stereo partly shown) [Compound 344]
stdout: 39.8 to 316 pM

###

- measured-on: recombinant human ALK5 (TGF-βR1) protein (Homo sapiens, UniProt P36897)
- Construct: purchased Life Technologies PR9075A
- Sequence (P36897 34-503): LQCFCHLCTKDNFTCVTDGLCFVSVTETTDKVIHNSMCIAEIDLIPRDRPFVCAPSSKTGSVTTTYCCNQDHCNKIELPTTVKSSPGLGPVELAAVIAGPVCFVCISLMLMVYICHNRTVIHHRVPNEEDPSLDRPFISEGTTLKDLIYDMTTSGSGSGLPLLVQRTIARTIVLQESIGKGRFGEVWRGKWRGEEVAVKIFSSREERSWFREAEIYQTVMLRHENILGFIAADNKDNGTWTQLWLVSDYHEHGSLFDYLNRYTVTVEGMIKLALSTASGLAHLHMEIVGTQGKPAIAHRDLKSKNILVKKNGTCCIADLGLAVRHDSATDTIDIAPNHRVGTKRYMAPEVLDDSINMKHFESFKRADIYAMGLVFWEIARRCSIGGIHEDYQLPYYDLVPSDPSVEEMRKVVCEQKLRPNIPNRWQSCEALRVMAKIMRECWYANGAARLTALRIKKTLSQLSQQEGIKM
- method-description: Biochemical ALK5 (TGF-βR1) assay to measure pKi (LANCE Ultra ULight kinase assay)
- experimental-context: apparent pKi from pIC50 by Cheng-Prusoff, read-out: ALK5 pKi (converted)
Examples of compounds with documented Ki follow.

Check out these entries, answers already filled in.
>  <compound>
Cc1cccc(-c2nc3ccccn3c2-c2ccc3ncc(-c4cn[nH]c4)cc3c2)n1

>  <Ki>
< 0.0316 nM

$$$$
>  <compound>
Cc1cccc(-c2[nH]cnc2-c2ccc3ncc(-c4ncc(C(=O)OC5CCNCC5)s4)cc3c2)n1

>  <Ki>
0.0398 to 0.316 nM

$$$$
>  <compound>
Cc1cccc(-c2[nH]cnc2-c2ccc3ncc(C4=CCC(NC(=O)CC5CNC5)CC4)cc3c2)n1 (racemic)

>  <Ki>
0.0398 to 0.316 nM

$$$$

// next entry
stdin: Write down Ki measured for item Cc1cccc(-c2[nH]ncc2-c2ccc3ncc(C(=O)O[C@H]4CCN(C)C4)cc3n2)n1
stdout: 0.0398 to 0.316 nM

###

- measured-on: recombinant human ALK5 (TGF-βR1) protein (Homo sapiens, UniProt P36897)
- Construct: purchased Life Technologies PR9075A
- Sequence (P36897 34-503): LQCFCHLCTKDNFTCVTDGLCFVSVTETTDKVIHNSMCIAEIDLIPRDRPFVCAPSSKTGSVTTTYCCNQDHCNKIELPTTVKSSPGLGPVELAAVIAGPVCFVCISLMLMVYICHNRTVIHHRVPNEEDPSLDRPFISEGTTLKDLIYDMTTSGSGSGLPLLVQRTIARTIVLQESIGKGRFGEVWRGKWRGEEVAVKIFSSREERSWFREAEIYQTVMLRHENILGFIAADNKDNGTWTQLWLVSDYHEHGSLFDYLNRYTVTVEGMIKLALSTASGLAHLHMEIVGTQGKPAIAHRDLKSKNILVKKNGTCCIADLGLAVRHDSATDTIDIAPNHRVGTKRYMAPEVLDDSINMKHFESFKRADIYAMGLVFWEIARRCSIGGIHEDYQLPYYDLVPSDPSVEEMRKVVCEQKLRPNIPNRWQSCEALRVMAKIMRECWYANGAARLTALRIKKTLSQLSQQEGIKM
- method-description: Biochemical ALK5 (TGF-βR1) assay to measure pKi (LANCE Ultra ULight kinase assay)
- experimental-context: apparent pKi from pIC50 by Cheng-Prusoff, read-out: ALK5 pKi (converted)
measurement-type: Ki

Check out these entries, answers already filled in.
>  <molecule>
CNCCn1cc(-c2cnc3ccc(-c4nn[nH]c4-c4cccc(C)n4)cc3c2)cn1 [Compound 125]

>  <result>
< 0.0316 nM

$$$$
>  <molecule>
Cc1cccc(-c2[nH]cnc2-c2ccc3ncc(N4CCC(C(=O)OC5CCNCC5)CC4)cc3c2)n1 [Compound 701]

>  <result>
0.0398 to 0.316 nM

$$$$
>  <molecule>
Cc1cccc(-c2n[nH]cc2-c2ccc3ncc(CCC(=O)N4CCOCC4)cc3n2)n1 [Compound 385]

>  <result>
0.398 to 3.16 nM

$$$$
>  <molecule>
Cc1cccc(-c2[nH]cnc2-c2ccc3ncc(N4CCC(N)CC4)cc3c2)n1 [Compound 438]

>  <result>
0.0398 to 0.316 nM

$$$$

stdin: Write down Ki measured for item Cc1cccc(-c2n[nH]cc2-c2ccc3nccc(N4CCC(N5CCN(C)CC5)CC4)c3n2)n1 [Compound 845]
stdout: 0.398 to 3.16 nM

stdin: Write down Ki measured for item Cc1cccc(-c2[nH]cnc2-c2ccc3ncc(C(=O)OC[C@H]4CCCN4)cc3c2)n1 [Compound 760]
stdout: 0.398 to 3.16 nM

stdin: Write down Ki measured for item Cc1cccc(-c2[nH]nnc2-c2ccc3ncc(N4CCCNCC4)cc3c2)n1 [Compound 339]
stdout: 0.398 to 3.16 nM

stdin: Write down Ki measured for item Cc1cccc(-c2[nH]ncc2-c2ccc3ncc(C(=O)OCCCC4CCNCC4)cc3c2)n1 [Compound 1182]
stdout: 0.0398 to 0.316 nM

stdin: Write down Ki measured for item CNCCn1cc(-c2cnc3ccc(-c4c(-c5cccc(C)n5)nc5ccccn45)nc3c2)cn1 [Compound 527]
stdout: 0.0398 to 0.316 nM

stdin: Write down Ki measured for item Cc1cccc(-c2[nH]ncc2-c2ccc3ncc(C(=O)N(C)CCN4CCOCC4)cc3n2)n1 [Compound 182]
stdout: 3.98 to 31.6 nM

stdin: Write down Ki measured for item Cc1cccc(-c2[nH]cnc2-c2ccc3ncc(-c4ncc(C(=O)O[C@H]5CCNC5)s4)cc3c2)n1 [Compound 1160]
stdout: < 0.0316 nM

stdin: Write down Ki measured for item C=C(CN1CCNCC1)c1cnc2ccc(-c3nc[nH]c3-c3cccc(C)n3)cc2c1 [Compound 256]
stdout: 0.0398 to 0.316 nM

###

- measured-on: recombinant human ALK5 (TGF-βR1) protein (Homo sapiens)
- Construct: purchased Life Technologies PR9075A
- method-description: Biochemical ALK5 (TGF-βR1) assay to measure pKi (LANCE Ultra ULight kinase assay)
- experimental-context: apparent pKi from pIC50 by Cheng-Prusoff, read-out: ALK5 pKi (converted)
measurement-type: Ki

>  <molecule>
Cc1cccc(-c2[nH]cnc2-c2ccc3ncc(C(=O)OCCN4CCC5(CCNCC5)C4)cc3c2)n1 [Compound 896]

>  <measurement-type>
Ki

>  <result>
0.0398 to 0.316 nM

$$$$
>  <molecule>
Cc1cccc(-c2n[nH]cc2-c2ccc3ncc(N4CCC5(CCNC5)C4)cc3n2)n1 (stereo not shown) [Compound 10]

>  <measurement-type>
Ki

>  <result>
0.0398 to 0.316 nM

$$$$

stdin: Write down Ki measured for item Cc1cccc(-c2n[nH]cc2-c2ccc3ncc(-c4cnn5c4NCCC5)cc3n2)n1 [Compound 525]
stdout: < 0.0316 nM

stdin: Write down Ki measured for item Cc1cccc(-c2[nH]cnc2-c2ccc3ncc(-c4nc(C(=O)OCCN5CCC[C@@H](N)C5)cs4)cc3c2)n1 [Compound 1252]
stdout: 0.0398 to 0.316 nM

stdin: Write down Ki measured for item Cc1cccc(-c2[nH]ncc2-c2ccc3ncc(OC(=O)[C@H]4C[C@@H](N)C4)cc3c2)n1 [Compound 1032]
stdout: 0.0398 to 0.316 nM

stdin: Write down Ki measured for item Cc1cccc(-c2[nH]nnc2-c2ccc3ncc(NCCN4CCN(C(C)C)CC4)cc3n2)n1 [Compound 46]
stdout: 0.398 to 3.16 nM

stdin: Write down Ki measured for item CNCc1ccnc2ccc(-c3c[nH]nc3-c3cccc(C)n3)nc12 [Compound 829]
stdout: 0.398 to 3.16 nM

stdin: Write down Ki measured for item Cc1cccc(-c2[nH]cnc2-c2ccc3ncc(-c4ccc(C(=O)O[C@@H]5CCN(C)C5)nc4)cc3c2)n1 [Compound 273]
stdout: < 0.0316 nM

stdin: Write down Ki measured for item Cc1cccc(-c2[nH]cnc2-c2ccc3ncc(C(=O)OCCN4CC5(CCNCC5)C4)cc3c2)n1 [Compound 891]
stdout: 0.0398 to 0.316 nM
